meta.source: paper PMC12567248

Experiment: Tissue distribution of syringic acid in liver and kidney
Assay type: in vivo, Sprague Dawley rats
Settings: Sprague Dawley, rat, 100 mg kg^−1; kidney; oral; read-out: maximum concentration (Cmax)
Readout type: Cmax (ng/g)
Please reply with the bare figure in ng/g and do not write the unit itself.

Param item = COc1cc(C(=O)O)cc(OC)c1O [Syringic Acid, 3,5-Dimethoxy-4-hydroxybenzoic acid] ; retrieve measured Cmax.
105000

====

Experiment: Tissue distribution of syringic acid in liver and kidney
Assay type: in vivo, Sprague Dawley rats
Conditions: Sprague Dawley, rat, kidney, po, 100 mg/kg; read-out: Cmax
Readout type: Cmax
Just so you know, I need the unit written after the number.

Param item = COc1cc(C(=O)O)cc(OC)c1O [Syringic Acid, 3,5-Dimethoxy-4-hydroxybenzoic acid] ; retrieve measured Cmax.
105000 ng/g
